Sourced from ChEMBL document CHEMBL1250433

system: OVCAR-3; experiment: Cytotoxicity against human OVCAR-3 cells; type: functional; conditions: read-out: pTGI (converted)
measure: TGI (nM)
Give bare numbers, in nM.

Use these answered entries as a reference point.
INSERT INTO measurements (mol_smiles, measure, recorded_value) VALUES
  ('O=C1N=C(Nc2ccc(O)cc2)S/C1=C\c1ccc(F)cc1', 'TGI', 562),
  ('O=C1N=C(Nc2cccc(O)c2)S/C1=C\C(Cl)=C/c1ccc([N+](=O)[O-])cc1', 'TGI', 955),
  ('O=C1N=C(Nc2cccc(O)c2)S/C1=C\c1ccc(Cl)cc1', 'TGI', 2750);

Continue with the compound presented below.
Observed TGI on OVCAR-3 for O=C1N=C(Nc2ccc(O)cc2)S/C1=C\c1ccc(Cl)cc1 , please.
490
